The reported numbers originate from PubChem BioAssay AID2060492.

Tested on: 695427-040-R-J1-PDC complex spheroids, viability percent T/C
Test: Anticancer human tumor 695427-040-R-J1-PDC patient-derived colon adenocarcinoma cell line growth inhibition [GQUAD]
Conditions: second compound 1 µM; first compound 0.00999 µM; stronger effect = lower value
# label = Yes if viability, T/C < 80% else No

As a guide, the following entries are already answered.
INSERT INTO results (compound, class_assignment) VALUES
  ('CC[C@@]1(O)C(=O)OCc2c1cc1n(c2=O)Cc2cc3c(CN(C)C)c(O)ccc3nc2-1 + Cc1cnc(CNC(=O)c2c(=O)c3ccc(N4CCCN(C)CC4)nc3n3c2sc2ccccc23)cn1', 'Yes'),
  ('CCc1c2c(nc3ccc(O)cc13)-c1cc3c(c(=O)n1C2)COC(=O)[C@]3(O)CC + Cc1cnc(CNC(=O)c2c(=O)c3ccc(N4CCCN(C)CC4)nc3n3c2sc2ccccc23)cn1', 'Yes'),
  ('Cn1ncnc1[C@H]1c2n[nH]c(=O)c3cc(F)cc(c23)N[C@@H]1c1ccc(F)cc1 + CN(C)c1ccc(Nc2c3ccc(NC(=O)CCN4CCCC4)cc3nc3cc(NC(=O)CCN4CCCC4)ccc23)cc1', 'No');

Next up:
// query Record Cn1ncnc1[C@H]1c2n[nH]c(=O)c3cc(F)cc(c23)N[C@@H]1c1ccc(F)cc1 + Cc1cnc(CNC(=O)c2c(=O)c3ccc(N4CCCN(C)CC4)nc3n3c2sc2ccccc23)cn1 : is its viability, T/C strictly below 80%?
// result Yes

---

Tested on: 695427-040-R-J1-PDC complex spheroids, viability percent T/C
Experiment: Anticancer human tumor 695427-040-R-J1-PDC cell line growth inhibition [GQUAD];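 further: spheroids exposed to compounds for seven days before readout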
Conditions: second compound 0.316 µM; first compound 10 µM; stronger effect = lower value
Please provide measured viability, T/C for the entries that follow.
Numbers only, in %.

INSERT INTO measurements (compound, tested_system, measured_parameter, test_result) VALUES
  ('O=c1[nH]cc(F)c(=O)[nH]1 + Cc1[nH]c2ccc(F)cc2c1-c1nc2c3cccnc3c3ncccc3c2[nH]1', '695427-040-R-J1-PDC complex spheroids, viability percent T/C', 'viability, T/C', 87),
  ('COc1ncnc(C2CC2)c1-c1ncc2cnn(Cc3ccc(-c4nc(C(F)(F)F)cn4C(C)C)cc3)c2n1 + Cc1cnc(CNC(=O)c2c(=O)c3ccc(N4CCCN(C)CC4)nc3n3c2sc2ccccc23)cn1', '695427-040-R-J1-PDC complex spheroids, viability percent T/C', 'viability, T/C', 69.2),
  ('CCCS(=O)(=O)Nc1ccc(F)c(C(=O)c2c[nH]c3ncc(-c4ccc(Cl)cc4)cc23)c1F + CN(C)c1ccc(Nc2c3ccc(NC(=O)CCN4CCCC4)cc3nc3cc(NC(=O)CCN4CCCC4)ccc23)cc1', '695427-040-R-J1-PDC complex spheroids, viability percent T/C', 'viability, T/C', 68.3);

# batch size: 2; output viability, T/C per entry
1. CC1COCCN1c1cc(-c2ccnn2C)c2ccnc(-c3ccn[nH]3)c2n1 (stereo not given) + CN(C)c1ccc(Nc2c3ccc(NC(=O)CCN4CCCC4)cc3nc3cc(NC(=O)CCN4CCCC4)ccc23)cc1
2. CC(C)n1c(=O)n(C)c2cnc3cc(F)c(-c4ccc(OCCCN5CCCCC5)nc4)cc3c21 + CN(C)c1ccc(Nc2c3ccc(NC(=O)CCN4CCCC4)cc3nc3cc(NC(=O)CCN4CCCC4)ccc23)cc1

// result
[42.4, 67.4]
